- Target Desc: human GLP-1R (Homo sapiens, UniProt P43220, G168S)
- Sequence (P43220 24-463 G168S limits assumed): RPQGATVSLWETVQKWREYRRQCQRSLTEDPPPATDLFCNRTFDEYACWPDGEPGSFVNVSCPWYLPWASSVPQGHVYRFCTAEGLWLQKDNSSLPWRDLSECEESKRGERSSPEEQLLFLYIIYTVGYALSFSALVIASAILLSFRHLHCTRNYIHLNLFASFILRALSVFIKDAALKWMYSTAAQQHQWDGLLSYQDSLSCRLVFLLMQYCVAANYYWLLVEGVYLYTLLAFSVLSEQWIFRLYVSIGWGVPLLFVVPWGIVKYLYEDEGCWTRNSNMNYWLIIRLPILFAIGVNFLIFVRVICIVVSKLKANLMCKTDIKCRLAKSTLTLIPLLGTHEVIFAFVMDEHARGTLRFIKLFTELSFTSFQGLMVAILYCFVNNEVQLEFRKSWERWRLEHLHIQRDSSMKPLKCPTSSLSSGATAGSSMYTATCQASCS
- Procedure Text: CHO GLP-1R Clone H6—Assay 1: HTRF cAMP cell-based functional agonist assay (high GLP-1R density)
- Assay Setup: read-out: Assay 1 EC50; CHO GLP-1R Clone H6, cAMP HTRF; geometric mean
Quantity Kind: EC50 (nM)

{"columns": ["Compound", "Target Desc", "EC50 (nM)"],
 "data": [
  ["Cc1ccccc1COc1cccc(C2CCN(Cc3nc4ccc(C(=O)O)cc4n3C)CC2)n1", "human GLP-1R (Homo sapiens, UniProt P43220, G168S)", 1600],
  ["C[C@H]1CN(c2cccc(OCc3ccc(C#N)cc3F)n2)CCN1Cc1nc2ccc(C(=O)O)cc2n1Cc1cncn1C [Example 10A-25]", "human GLP-1R (Homo sapiens, UniProt P43220, G168S)", 1.7]
]}

[I] CCn1cnnc1Cn1c(CN2CCN(c3cccc(OCc4ccc(Cl)cc4F)n3)C[C@@H]2C)nc2ccc(C(=O)O)cc21 [Example 10A-21]
[II] Cn1cncc1Cn1c(CN2CCN(c3cccc(OCc4ccc(Cl)cc4F)n3)CC2)nc2ccc(C(=O)O)cc21 [Example 10A-36]
*Q* # query: argmin of EC50 over I and II Bench note: the answer is the label of the chosen record.
*A* II
(II: 0.33 nM, I: 18 nM)
